- Study Target: T1, Q7-AA
- T1 chain: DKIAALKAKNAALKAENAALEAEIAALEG
- Assay Protocol: two-hybrid library CCmax;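 also: natural log of median RNA to DNA barcode read ratio; higher means stronger binding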
- Condition: mean of both orientations
Below is a list of entries, each paired with its recorded interaction score value.
# output: bare number, no unit

DEIAALEAEIAALEAENAALEAENAALEG [Q3-AA]	-1.36

Short answer for DKNAALKAENAALEAEIAALEAKIAALKG [4H3718-AA] : interaction score was -0.973

Form: binder = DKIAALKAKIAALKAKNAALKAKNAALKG [4H2944-AA] ; interaction score = -1.77

// field: interaction score; key: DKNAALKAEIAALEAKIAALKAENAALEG [4H3627-AA] ; value = -1.97

Form field interaction score, entry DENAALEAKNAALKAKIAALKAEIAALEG [4H1513-AA] : -0.188

Measured interaction score, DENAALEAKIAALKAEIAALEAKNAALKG [4H1352-AA] : -1.38
